- System: H1299 cells
- Protocol Conditions: H1299 cells, WST-1, 24 h, mean ± standard error
// values below are reported TC50
Your answer is read as µM, so omit the unit and give the number.

Consider the reported TC50 for these compounds:
INSERT INTO results (compound, unit_abbrev, assay_value) VALUES
  ('O=C(Nc1cccc(C(F)(F)F)c1)c1c[nH]c2ccc(Br)cc12', 'µM', 27),
  ('O=C(Nc1cccc(C(F)(F)F)c1)c1c[nH]c2ccc(Nc3ccc(O)cc3)cc12', 'µM', 33),
  ('COc1ccc(-c2ccc3[nH]cc(C(=O)Nc4cccc(C(F)(F)F)c4)c3c2)cc1', 'µM', 17),
  ('O=C(Nc1cccc(C(F)(F)F)c1)c1c[nH]c2ccc(Nc3cccc([N+](=O)[O-])c3)cc12', 'µM', 18),
  ('O=C(Nc1cccc(C(F)(F)F)c1)c1c[nH]c2ccc(-c3cccc(CN4CCOCC4)c3)cc12', 'µM', 13),
  ('CNC(=O)c1cc(Oc2ccc(NC(=O)Nc3ccc(Cl)c(C(F)(F)F)c3)c(F)c2)ccn1 [Regorafenib, reference compound]', 'µM', 10),
  ('COc1ccc(Nc2ccc3[nH]cc(C(=O)Nc4cccc(C(F)(F)F)c4)c3c2)cc1OC', 'µM', 16);

Now, please, on to the next compound.
// query Please indicate TC50 recorded for O=C(Nc1cccc(C(F)(F)F)c1)c1c[nH]c2ccc(Nc3ccc([N+](=O)[O-])cc3)cc12
// result 11

* * *

- System: H1975 cells
- Protocol Conditions: H1975 cells, WST-1, 24 h, mean ± standard error
TC50 values, listed per item
Lab book: enter the figure in µM, no units written.

Here are 3 molecules together with their reported answers.
INSERT INTO results (molecule, test_system, unit_abbrev, assay_value) VALUES
  ('O=C(Nc1cccc(C(F)(F)F)c1)c1c[nH]c2ccc(-c3cccc(CN4CCOCC4)c3)cc12', 'H1975 cells', 'µM', 23),
  ('COc1ccc(Nc2ccc3[nH]cc(C(=O)Nc4cccc(C(F)(F)F)c4)c3c2)cc1OC', 'H1975 cells', 'µM', 25),
  ('CNC(=O)c1cc(Oc2ccc(NC(=O)Nc3ccc(Cl)c(C(F)(F)F)c3)c(F)c2)ccn1 [Regorafenib, reference compound]', 'H1975 cells', 'µM', 16);

Attention now turns to another entry.
// query Check the records and state TC50 for O=C(Nc1cccc(C(F)(F)F)c1)c1c[nH]c2ccc(Nc3ccc(O)cc3)cc12
// result 33

* * *

Attribute: TC50
- Test system: MRC-5 cells
- Protocol Conditions: MRC-5 normal lung cells, WST-1, mean ± standard error

# example entries with known answers
INSERT INTO assay_data (molecule, test_system, assay_value) VALUES
  ('CNC(=O)c1cc(Oc2ccc(NC(=O)Nc3ccc(Cl)c(C(F)(F)F)c3)c(F)c2)ccn1 [Regorafenib, reference compound]', 'MRC-5 cells', '18 ± 2.0 µM'),
  ('Cc1oncc1C(=O)Nc1ccc(C(F)(F)F)cc1 [Leflunomide, reference compound]', 'MRC-5 cells', '300 < μM');

// query Specify TC50 for O=C(Nc1cccc(C(F)(F)F)c1)c1c[nH]c2ccc(-c3cccc(CN4CCOCC4)c3)cc12 and stop.
// result 17 ± 3.0 µM

// query Identify measured TC50 associated with O=C(Nc1cccc(C(F)(F)F)c1)c1c[nH]c2ccc(Nc3ccc([N+](=O)[O-])cc3)cc12
// result 17 ± 0.3 µM

// query Hello, please tell me recorded TC50 for this one: O=C(Nc1cccc(C(F)(F)F)c1)c1c[nH]c2ccc(Br)cc12
// result 45 ± 8.0 µM
